Tested on: 648629-189-R-J1-PDC spheroids with HUVEC/MSC, viability
Assay: Anticancer human tumor 648629-189-R-J1-PDC patient-derived bladder carcinoma cell line growth inhibition [PI3K]
Details: second compound 0.316 µM; first compound 10 µM; stronger effect = lower value
Rule: measured viability, T/C below 80% gets YES; anything equal to or greater than 80% gets NO.

// below: answered compounds
compound="C[C@@H](NC(=O)c1ncnc(N)c1Cl)c1ncc(C(=O)Nc2cc(C(F)(F)F)c(Cl)cn2)s1 + COc1c(OCCCN2CCOCC2)ccc2c3n(c(=NC(=O)c4cnc(N)nc4)nc12)CCN3" qualitativelabel=YES
compound="C[C@@H](NC(=O)c1ncnc(N)c1Cl)c1ncc(C(=O)Nc2cc(C(F)(F)F)c(Cl)cn2)s1 + CC(Nc1ccc2c(c1)OCCn1cc(N3C(=O)OCC3C(F)F)nc1-2)C(N)=O" qualitativelabel=NO
compound="Cn1ncc(Cl)c1-c1cc(C(=O)NC(CN)Cc2cccc(F)c2)sc1Cl (stereo not given) + CC(Nc1ccc2c(c1)OCCn1cc(N3C(=O)OCC3C(F)F)nc1-2)C(N)=O" qualitativelabel=YES

Attention now shifts to the item below.
-- ask hey, is viability, T/C for C#Cc1c(F)ccc2cc(O)cc(-c3ncc4c(N5CC6CCC(C5)N6)nc(OCC56CCCN5CC(F)C6)nc4c3F)c12 (stereo not given) + CC(Nc1ncnc2nc[nH]c12)c1cc2cccc(Cl)c2c(=O)n1-c1ccccc1 lower than 80% or not?
-- reply NO

* * *

System: 648629-189-R-J1-PDC spheroids with HUVEC/MSC, viability
Assay: Anticancer human tumor 648629-189-R-J1-PDC cell line growth inhibition [PI3K]
Conditions: second compound 0.316 µM; first compound 0.01 µM; stronger effect = lower value
We begin with a simple list: items and their reported viability, T/C.
Quick note: give the figure in %, leave out the unit.

compound="CC(=O)c1c(C)c2cnc(Nc3ccc(N4CCNCC4)cn3)nc2n(C2CCCC2)c1=O + COc1c(OCCCN2CCOCC2)ccc2c3n(c(=NC(=O)c4cnc(N)nc4)nc12)CCN3" targetundertest="648629-189-R-J1-PDC spheroids with HUVEC/MSC, viability" observedmeasurement=26.3
compound="CCN1CCN(Cc2ccc(Nc3ncc(F)c(-c4cc(F)c5nc(C)n(C(C)C)c5c4)n3)nc2)CC1 + COc1c(OCCCN2CCOCC2)ccc2c3n(c(=NC(=O)c4cnc(N)nc4)nc12)CCN3" targetundertest="648629-189-R-J1-PDC spheroids with HUVEC/MSC, viability" observedmeasurement=18.9
compound="Cn1ncnc1[C@H]1c2n[nH]c(=O)c3cc(F)cc(c23)N[C@@H]1c1ccc(F)cc1 + CC(Nc1ncnc2nc[nH]c12)c1cc2cccc(Cl)c2c(=O)n1-c1ccccc1" targetundertest="648629-189-R-J1-PDC spheroids with HUVEC/MSC, viability" observedmeasurement=92

-- ask Give recorded viability, T/C with 648629-189-R-J1-PDC spheroids with HUVEC/MSC, viability for the following compound: CCN1CCN(Cc2ccc(Nc3ncc(F)c(-c4cc(F)c5nc(C)n(C(C)C)c5c4)n3)nc2)CC1 + CC(Nc1ncnc2nc[nH]c12)c1cc2cccc(Cl)c2c(=O)n1-c1ccccc1
-- reply 96.3

* * *

Tested on: 648629-189-R-J1-PDC spheroids with HUVEC/MSC, viability
Experiment: Anticancer human tumor 648629-189-R-J1-PDC cell line growth inhibition [PI3K];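 note: spheroids exposed to agents for seven days before reading; percent of vehicle control luminescence where 100% = DMSO treated spheroids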
Settings: second compound 1 µM; first compound 0.01 µM; stronger effect = lower value
Rule: measured viability, T/C below 70% gets 1; anything equal to or greater than 70% gets 0.

compound="CCN1CCN(Cc2ccc(Nc3ncc(F)c(-c4cc(F)c5nc(C)n(C(C)C)c5c4)n3)nc2)CC1 + CC(Nc1ccc2c(c1)OCCn1cc(N3C(=O)OCC3C(F)F)nc1-2)C(N)=O" targetundertest="648629-189-R-J1-PDC spheroids with HUVEC/MSC, viability" qualitativelabel=0

-- ask hey, is viability, T/C for Cn1ncnc1[C@H]1c2n[nH]c(=O)c3cc(F)cc(c23)N[C@@H]1c1ccc(F)cc1 + COc1c(OCCCN2CCOCC2)ccc2c3n(c(=NC(=O)c4cnc(N)nc4)nc12)CCN3 lower than 70% or not?
-- reply 1

-- ask Lookup CC(=O)c1c(C)c2cnc(Nc3ccc(N4CCNCC4)cn3)nc2n(C2CCCC2)c1=O + CC(Nc1ccc2c(c1)OCCn1cc(N3C(=O)OCC3C(F)F)nc1-2)C(N)=O
-- reply 0

-- ask Lookup CCN1CCN(Cc2ccc(Nc3ncc(F)c(-c4cc(F)c5nc(C)n(C(C)C)c5c4)n3)nc2)CC1 + COc1c(OCCCN2CCOCC2)ccc2c3n(c(=NC(=O)c4cnc(N)nc4)nc12)CCN3
-- reply 1

* * *

Test system: 648629-189-R-J1-PDC spheroids with HUVEC/MSC, viability
Assay: Anticancer human tumor 648629-189-R-J1-PDC cell line growth inhibition [PI3K];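 note: spheroids exposed to agents for seven days before reading; percent of vehicle control luminescence where 100% = DMSO treated spheroids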
Settings: second compound 0.316 µM; first compound 0.01 µM; stronger effect = lower value
We begin with a simple list: items and their reported viability, T/C.
Quick note: give the figure in %, leave out the unit.

compound="CC(=O)c1c(C)c2cnc(Nc3ccc(N4CCNCC4)cn3)nc2n(C2CCCC2)c1=O + CC(Nc1ncnc2nc[nH]c12)c1cc2cccc(Cl)c2c(=O)n1-c1ccccc1" observedmeasurement=107
compound="CC(=O)c1c(C)c2cnc(Nc3ccc(N4CCNCC4)cn3)nc2n(C2CCCC2)c1=O + CC(Nc1ccc2c(c1)OCCn1cc(N3C(=O)OCC3C(F)F)nc1-2)C(N)=O" observedmeasurement=82.4
compound="CC(=O)c1c(C)c2cnc(Nc3ccc(N4CCNCC4)cn3)nc2n(C2CCCC2)c1=O + Cc1nc(NC(=O)N2CCCC2C(N)=O)sc1-c1ccnc(C(C)(C)C(F)(F)F)c1" observedmeasurement=84.1
compound="Cn1ncnc1[C@H]1c2n[nH]c(=O)c3cc(F)cc(c23)N[C@@H]1c1ccc(F)cc1 + COc1c(OCCCN2CCOCC2)ccc2c3n(c(=NC(=O)c4cnc(N)nc4)nc12)CCN3" observedmeasurement=16.4
compound="CCN1CCN(Cc2ccc(Nc3ncc(F)c(-c4cc(F)c5nc(C)n(C(C)C)c5c4)n3)nc2)CC1 + CC(Nc1ccc2c(c1)OCCn1cc(N3C(=O)OCC3C(F)F)nc1-2)C(N)=O" observedmeasurement=82.6

-- ask Would you kindly share the measured viability, T/C for CC(C)n1nc(-c2ccc3oc(N)nc3c2)c2c(N)ncnc21 + COc1c(OCCCN2CCOCC2)ccc2c3n(c(=NC(=O)c4cnc(N)nc4)nc12)CCN3 ?
-- reply 15.8

* * *

We begin with a simple list: items and their reported viability, T/C.
Test system: 648629-189-R-J1-PDC spheroids with HUVEC/MSC, viability
Assay: Anticancer human tumor 648629-189-R-J1-PDC cell line growth inhibition [PI3K];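 note: spheroids exposed to agents for seven days before reading; percent of vehicle control luminescence where 100% = DMSO treated spheroids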
Details: second compound 1 µM; first compound 0.316 µM; stronger effect = lower value
Source text: Combinatorial screen of targeted agents with the PI3K inhibitors inavolisib, alpelisib, duvelisib, and copanlisib in multi-cell type tumor spheroids A high-throughput screen of multi-cell type tumor spheroids was designed to identify active combinations of targeted small molecules and PI3K pathway inhibitors. […] Compounds. […] If the clinical Cmax for an agent had not been determined, the highest concentration tested was 10 microM. […]

Example cases with answers are listed next.
compound="CCN1CCN(Cc2ccc(Nc3ncc(F)c(-c4cc(F)c5nc(C)n(C(C)C)c5c4)n3)nc2)CC1 + Cc1nc(NC(=O)N2CCCC2C(N)=O)sc1-c1ccnc(C(C)(C)C(F)(F)F)c1" targetundertest="648629-189-R-J1-PDC spheroids with HUVEC/MSC, viability" reportedmetric="viability, T/C" observedmeasurement=83.6%
compound="C#Cc1c(F)ccc2cc(O)cc(-c3ncc4c(N5CC6CCC(C5)N6)nc(OCC56CCCN5CC(F)C6)nc4c3F)c12 (centres undefined) + CC(Nc1ccc2c(c1)OCCn1cc(N3C(=O)OCC3C(F)F)nc1-2)C(N)=O" targetundertest="648629-189-R-J1-PDC spheroids with HUVEC/MSC, viability" reportedmetric="viability, T/C" observedmeasurement=63.2%
compound="CC(Cn1ccc(-c2ccc(C#N)c(Cl)c2)n1)NC(=O)c1cc(C(C)O)[nH]n1 (centres undefined) + CC(Nc1ncnc2nc[nH]c12)c1cc2cccc(Cl)c2c(=O)n1-c1ccccc1" targetundertest="648629-189-R-J1-PDC spheroids with HUVEC/MSC, viability" reportedmetric="viability, T/C" observedmeasurement=106%

-- ask Would you kindly share the measured viability, T/C for CC(Cn1ccc(-c2ccc(C#N)c(Cl)c2)n1)NC(=O)c1cc(C(C)O)[nH]n1 (centres undefined) + Cc1nc(NC(=O)N2CCCC2C(N)=O)sc1-c1ccnc(C(C)(C)C(F)(F)F)c1 ?
-- reply 68.1%

* * *

We begin with a simple list: items and their reported viability, T/C.
System: 648629-189-R-J1-PDC spheroids with HUVEC/MSC, viability
Test: Anticancer human tumor 648629-189-R-J1-PDC cell line growth inhibition [PI3K];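 note: spheroids exposed to agents for seven days before reading; percent of vehicle control luminescence where 100% = DMSO treated spheroids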
Conditions: second compound 3.16 µM; first compound 0.0316 µM; stronger effect = lower value

-- ask Would you kindly share the measured viability, T/C for CCN1CCN(Cc2ccc(Nc3ncc(F)c(-c4cc(F)c5nc(C)n(C(C)C)c5c4)n3)nc2)CC1 + CC(Nc1ncnc2nc[nH]c12)c1cc2cccc(Cl)c2c(=O)n1-c1ccccc1 ?
-- reply 86.8%

-- ask Lookup CNC(=O)c1ccc(N2C(=S)N(c3ccc(C#N)c(C(F)(F)F)c3)C(=O)C2(C)C)cc1F + Cc1nc(NC(=O)N2CCCC2C(N)=O)sc1-c1ccnc(C(C)(C)C(F)(F)F)c1
-- reply 64%

-- ask Lookup CC(=O)c1c(C)c2cnc(Nc3ccc(N4CCNCC4)cn3)nc2n(C2CCCC2)c1=O + CC(Nc1ncnc2nc[nH]c12)c1cc2cccc(Cl)c2c(=O)n1-c1ccccc1
-- reply 101%

-- ask Lookup Cn1nccc1Nc1nccc(-c2ccn(C(CO)c3ccc(Cl)c(F)c3)c(=O)c2)n1 (stereo not given) + Cc1nc(NC(=O)N2CCCC2C(N)=O)sc1-c1ccnc(C(C)(C)C(F)(F)F)c1
-- reply 64.4%

-- ask Lookup CC1(C)CCC(CN2CCN(c3ccc(C(=O)NS(=O)(=O)c4ccc(NCC5CCOCC5)c([N+](=O)[O-])c4)c(Oc4cnc5[nH]ccc5c4)c3)CC2)=C(c2ccc(Cl)cc2)C1 + CC(Nc1ncnc2nc[nH]c12)c1cc2cccc(Cl)c2c(=O)n1-c1ccccc1
-- reply 103%
